# Experiment summary: inhibitors of PAF-induced NFkB signaling in CF airway cells, dose response, cell-based, uHTS hits, panel, cytotoxicity readout (AID 624344)
# Stated conditions: CF bronchial epithelial cells, PAF-induced NFkB reporter inhibition, with PAF, run 2; at 79 µM (top of the series) unless noted

| Compound | inhibition |
| --- | --- |
| Cc1nc(N)c(C#N)c(-c2cccnc2)c1-c1ccccc1 | 80% |
| Cc1ccc(S(=O)(=O)Nc2cccc3ncccc23)s1 | 97% |
| COc1ccc(-c2cnc(N)nc2-c2ccc(OC)cc2O)cc1 | 102% |
| COc1cccc(OC)c1C(=O)Nc1cc(C)nn1-c1nc2ccccc2[nH]1 | 101% |
| C=CCSc1nc2ccccc2n1C(=O)/C=C/c1ccc(OC)c(OC)c1 | 102% |
| OCCNc1nc(Nc2ccc(Cl)c(Cl)c2)nc2ccccc12 | 105% |
| CC1=C(C(=O)OCc2ccc3c(c2)OCO3)C(c2cccc([N+](=O)[O-])c2)NC(=O)N1 (stereo unspecified) | 92.2% [at 19.8 µM] |
| CC(=O)Oc1c(Cl)cc(N(C(C)=O)S(=O)(=O)c2ccccc2)c2ccccc12 | 108% |
| Nc1nc(N)nc(-c2cc(O)ccc2O)n1 | 116% |
| CCOC(=O)C1=C(C)Nc2ccccc2N=C1NC(=O)c1oc2ccccc2c1COC | 101% |
| COc1ccc(CNc2ncnc3ccccc23)cc1 | 87% |

---

# Study system: Sentrin-specific protease 7 (Homo sapiens) (UniProt Q9BQF6)
# Experiment summary: SENP7 protease inhibitors, retest, confirmation, biochemical, luminescence, single concentration (AID 488917)
# Stated conditions: recombinant SENP7, Z-RLRGG-aminoluciferin luminescence, 40 min; at 12.5 µM; stronger effect = higher value
The other results are listed elsewhere or left out.
Property name: inhibition (%)

| Structure smiles | Unit symbol | Val |
| --- | --- | --- |
| O=C(O)/C=C/C(=O)NNc1ccc([N+](=O)[O-])cc1 | % | 92.5 |
| CCCc1cc(C(=O)Nc2ccc(Cl)cn2)cs1 | % | 92.2 |
| Cc1ccnc(NC(=O)c2ccoc2C)c1 | % | 97.1 |
| CCC(=O)Nc1ccc(C(=O)Nc2cccc(OC)c2)cc1 | % | 71.9 |
| C/C(=C\C(=O)c1ccccc1)Nc1cccc(O)c1 | % | 82.2 |
| CC(=O)Nc1ccc(/C=N/NC(=O)c2cccs2)cc1 | % | 78.5 |
| CC(=O)N1C(=O)/C(=C2\SC(=S)N(NC(=O)c3ccc(O)cc3)C2=O)c2ccccc21 | % | 25.2 |

---

# Study system: Sentrin-specific protease 7 (Homo sapiens) (UniProt Q9BQF6)
# Experiment summary: SENP7 protease inhibitors, retest, confirmation, biochemical, luminescence, single concentration (AID 488917)
# Stated conditions: recombinant SENP7, Z-RLRGG-aminoluciferin luminescence, 40 min; at 12.5 µM
The list shows a part of the results. Activity calls are given as the source filed them.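 How the source made its calls: active means mean inhibition above about 50% in the one-dose retest (limit read from the data); inactive means the rest.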
Outcome codes: active, inactive

| Molecule | Discrete label |
| --- | --- |
| CC(OC(=O)c1ccc2ccccc2n1)C(=O)c1ccccc1 (stereo not given) | active |
| COc1ccc(/C=N/Nc2ccccc2C(=O)O)cc1 | active |
| Cc1ccc(-n2cc3ccc([N+](=O)[O-])cc3n2)cc1 | active |
| CCOC(=O)c1cnc2[nH]c3ccccc3n2c1=O | active |
| CCC(=O)NC(Nc1cc(C)ccn1)(C(F)(F)F)C(F)(F)F | inactive |
| Cc1noc(C)c1/C=N/Nc1ccc2ccccc2n1 | inactive |
| Clc1ccc(-c2cc(-c3ccccn3)on2)c(Cl)c1 | active |
| CCN1C(=O)c2cccc3c(N)ccc1c23 | inactive |
| COc1ccccc1NC(=O)c1ccc(N2CC3CC(C2)c2cccc(=O)n2C3)c(NC(=O)c2cccnc2)c1 (stereo not given) | inactive |
| Cc1cccc(NC(=O)/C=C/c2ccc3c(c2)OCO3)n1 | active |
| CC(=O)c1sc(NC(=O)c2ccc(C)cc2)nc1C | inactive |
| CCOC(=O)c1ccc(Nc2cc3ccccc3c(=O)[nH]2)cc1 | inactive |
| O=C(c1cnn2ccccc12)N1CCc2ccccc21 | active |
| CN(c1ccc2nc3ccccc3c(=O)n2n1)C1CCCCC1 | active |
| COc1ccc(/C=C2/SC(=O)N(CCCCCC(=O)Nc3ccccc3C(=O)O)C2=S)cc1 | inactive |
| COc1cc(SC)ccc1C(=O)Nc1nc(C)cs1 | active |
| O=C(Nc1ccc2c(c1)CCC2)c1cccc(S(=O)(=O)Nc2ccccc2Cl)c1 | active |
| COc1ccc(C(=O)Nc2ccc(F)cc2F)cc1 | active |
| Nc1ccc(-c2nnc(-c3ccccc3)o2)cc1 | active |
| O=C1/C(=C/c2cccs2)CCc2ccccc21 | active |
| Cc1oc2c(c1C(=O)N1CCOCC1)C(=O)c1ccccc1C2=O | inactive |
| Oc1ccc(N=Nc2nccs2)c(O)c1 | active |
| Cc1c(Cl)cccc1NC(=O)Nc1ccc(C(=O)N2CCCC2)cc1 | active |
| O=c1c(-c2cccc(Cl)c2)c[nH]n1-c1ccccc1 | active |
| Fc1ccc2nc(N3CCCCC3)sc2c1 | active |

---

Quick reference for activation among some molecules
# Experiment summary: activators of apoptotic CHOP UPR arm, confirmation, cell-based, CHO-CHOP luciferase reporter, single concentration (AID 463112);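 further: 0% = DMSO wells and 100% = tunicamycin 10 µg/mL wells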
# Stated conditions: CHO-CHOP cells, CHOP-luciferase reporter luminescence; at 10 µM; stronger effect = higher value; percent of tunicamycin response, DMSO as zero
Some of the results follow.

| Molecule | activation, % |
| --- | --- |
| COc1cc(NC(=O)c2cncc(-c3ccc(C#N)cc3)c2)cc(C(=O)Nc2cccc(C(F)(F)F)c2)c1 | 83.5 |
| S=C1SCN(CCN2CCOCC2)CN1Cc1ccccc1 | 102 |
| COCCNc1nc(-n2nc(C)cc2C)nc2sc3c(c12)CCCC3 | 8.5 |
| Cc1ccc(Oc2nc(-c3ccccn3)nc3ccccc23)cc1 | 1.5 |
| O=C(N/N=C\c1cc2c(cc1Cl)OCO2)c1ccc(Br)s1 | 50.2 |
| COc1cccc2sc(Nc3nc(C)c(C(C)=O)s3)nc12 | 58.5 |
| Cc1cc(N/N=C\c2ccc(Br)cc2)nc(-n2nc(C)cc2C)n1 | 12.3 |
| Cc1cccc(C)c1NC(=O)C(Cl)C(=O)c1ccccc1 (stereo not drawn) | 85.6 |
| CCOC(=O)/C=c1\s/c(=C\c2ccc(C#N)cc2)c(=O)n1CC(=O)Nc1cccc(C)c1C | 1.05 |
| CCOC(=O)c1cnc(Nc2nc3ccccc3o2)nc1CSC(=S)N1CCCCC1 | 92.7 |
| CCOC(=O)c1sc(NC(=O)CCN2CCOCC2)c(C(=O)OCC)c1C | -1.25 |
| COc1ccc(OC)c(Nc2nc(-c3ccc(O)c(O)c3)cs2)c1 | 187 |
| CCn1c(/C=C/c2ccc([N+](=O)[O-])o2)nc2ccccc2c1=O | 14.3 |
| CCc1nn(-c2cc(Oc3cccc4ccccc34)nc(-c3ccccc3)n2)c(N)c1C#N | 40.1 |
| Cc1cc(C)nc(S/C=C/C(=O)c2ccccc2)n1 | 83.4 |
| COc1ccccc1/C=N\Nc1cc(C)nc(-n2nc(C)cc2C)n1 | 38 |
| O=C1CC(c2cccc(Cl)c2)CC(O)=C1C=Nc1ccccc1 (stereo not drawn) | 70.8 |
| CCOc1ccc2nc(Cl)c(C3CC(c4ccccc4)=NN3C(=O)c3cccs3)cc2c1 (stereo not drawn) | -1.15 |
| CCCc1cc(=S)n2c([nH]c3ccccc32)c1C#N | -0.45 |
| O=C1C=CC(=O)N1c1ccc(N2CCCCC2)cc1 | 60.2 |
| O=[N+]([O-])c1ccc(C=Nc2ccc(Cl)cc2Cl)s1 | 74.2 |
| Cc1cccc(Nc2nc3c(S(=O)(=O)c4ccccc4)nnn3c3ccccc23)c1C | 128 |
| CC(C)(C)Nc1nc(-c2ccccn2)nc2ccccc12 | 20.4 |

---

inhibition by entry:
# Study system: PEG-3 (UniProt Q6IN02)
# Sequence (Q6IN02 whole entry, looked up): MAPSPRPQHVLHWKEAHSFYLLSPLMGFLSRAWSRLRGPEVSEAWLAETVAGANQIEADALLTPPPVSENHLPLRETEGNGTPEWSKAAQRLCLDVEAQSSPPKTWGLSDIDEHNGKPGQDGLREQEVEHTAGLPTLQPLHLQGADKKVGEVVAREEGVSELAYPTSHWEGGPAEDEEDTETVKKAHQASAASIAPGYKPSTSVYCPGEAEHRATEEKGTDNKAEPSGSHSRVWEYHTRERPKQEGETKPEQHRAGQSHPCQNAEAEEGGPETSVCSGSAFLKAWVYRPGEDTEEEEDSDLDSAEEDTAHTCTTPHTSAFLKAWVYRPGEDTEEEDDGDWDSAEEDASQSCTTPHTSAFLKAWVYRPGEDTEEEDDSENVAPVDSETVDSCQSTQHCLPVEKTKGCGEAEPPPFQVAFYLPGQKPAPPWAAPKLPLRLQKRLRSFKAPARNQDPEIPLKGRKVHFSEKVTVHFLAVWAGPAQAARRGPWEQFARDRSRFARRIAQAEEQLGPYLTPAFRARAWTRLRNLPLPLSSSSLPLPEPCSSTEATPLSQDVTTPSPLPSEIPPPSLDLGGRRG
# Experiment summary: Peg3 promoter luciferase inhibitors, potency, dose response, cell-based, HeLa, CREF/GAPDH counter-screen panel (AID 624167)
# Stated conditions: CREF/GAPDH counter-screens; HeLa PEG-Prom luciferase reporter, overnight, run 2, dose range 1, at 100 µM (top of the series) unless noted
Property name: inhibition (%)

| Compound | Study system | Val |
| --- | --- | --- |
| O=C(COc1ccc(Cl)cc1Cl)Nc1ccccn1 | PEG-3 (UniProt Q6IN02) | 98.4 |
| O=C(Nc1nc2ccccc2[nH]1)c1ccccc1F | PEG-3 (UniProt Q6IN02) | 98.3 |
| CCCSc1ccc2nc(-c3ccccc3)cn2c1 | PEG-3 (UniProt Q6IN02) | 98.8 |
| Cc1ccc(C(=O)Nc2cc3ccccc3oc2=O)cc1 | PEG-3 (UniProt Q6IN02) | 78.7 |
| COc1cc(SC)ccc1C(=O)Nc1nc2ccccc2[nH]1 | PEG-3 (UniProt Q6IN02) | 101 |
| CC(C)CC(N)c1csc(NC(=O)Nc2ccccc2C(C)C)n1 (stereo not drawn) | PEG-3 (UniProt Q6IN02) | 101 |
| CN(C)CCNc1ccc2nnn3c4ccc(O)cc4c(=O)c1c23 | PEG-3 (UniProt Q6IN02) | 98 |
| CCOc1ccc(-c2ccc(SC)nn2)cc1 | PEG-3 (UniProt Q6IN02) | 92.5 |
| O=C(NCCc1ccccc1F)c1ccc2c(c1)OCCO2 | PEG-3 (UniProt Q6IN02) | 102 |
| Cc1cc(NC(c2cccnc2)c2ccc3cccnc3c2O)no1 (stereo not drawn) | PEG-3 (UniProt Q6IN02) | 74 |
| COc1ccc(-c2nc(-c3ccccn3)no2)cc1 | PEG-3 (UniProt Q6IN02) | 96.8 |
| CC(C)c1ccc(NC(=O)Nc2nc(C(C)N)cs2)cc1 (stereo not drawn) | PEG-3 (UniProt Q6IN02) | 98.9 |
| COc1ccc(/C=N/Nc2nncc3ccccc23)cc1 | PEG-3 (UniProt Q6IN02) | 95.4 |

The values you see were collected from PubChem BioAssay.
